Experiment: protease stability score; higher = more stable; yeast display proteolysis, trypsin and chymotrypsin;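 note: log10 excess protease needed over predicted unfolded state with 0 meaning unfolded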
Use YES when the recorded protease stability score is no lower than 1; use NO when it is lower.

# bool: protease stability score of `DETKVKKLVVHVAQVLMSGQVDEAQKFLNPDVEFHAGNVTLHGPEQVLEYYKKIQKRGVEFHVKEAEVHGNTVEVKYDVKFDGTEQTLKFKAEVKDTVVEKAELEIDEDYVRAVQKG` >= 1
YES

Has `DEESKKQIDNWLKAVQQGDPDQLVKNVDKDVTVEYGDKSIHGRESLMKTLEDKKKQWRLEFKSVDVDVHGDKARLDVDVVLQINGQPFRHTRTIHVHLHNGRVKHMRFRFDEQQQRDMDR` a recorded protease stability score greater than or equal to 1?
YES

Does protease stability score meet or surpass 1 for `DKDERHRIAHRLNEAIRTGDPHQMLRLADKNVKVQIGEKDVRGKDAIDKYARDLRKKVDHIQLRSLDVQGEEITMTIVFNVNGRRETVVYHVDYHNGQVKRVMVRSK` ?
NO

In plain terms: is recorded protease stability score at least 1 for `DSEEEKTISEQLRTNNPDDAEKLVDENARIVVGDKVIDGRKDAHRFFKRLTEQIDHLQVDSLTVKNGRFSLDFRFNVNGRDLRMVMKVVVDNGKIQYMQLDARDHDIQEHMRDALR` ?
NO

# check: protease stability score of `DDEVKERVTQLLTAMLTNNPDKVQELIDPNAKVHVGDKRVQGEDDIKRVVEEENRQWRMRIKSVSVHVQGEKVRLDIEFVVHVNGEPQNDRVIMELTVHNGRVTDLQLQVDPRKLQERRN` is greater than or equal to 1
NO

###

Assay: protease stability score; higher = more stable; yeast display proteolysis, trypsin and chymotrypsin;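 note: log10 excess protease needed over predicted unfolded state with 0 meaning unfolded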
Can you tell me protease stability score for the items I'm about to list?

So what does the record say about protease stability score for `DQKDAKRATEILKNLQEGDWSEVVRQADPNAEIKVGDKVYNGMEHYAEHMHRKVEHSRIRIEVETVKDHNGVIHIKFHIEYKVNGHPRSNTQNINFYLNNGKVRSIDVQVPEEDLEKEHK` ?
0.252

Using the record for `DEDANNTAKEMLENIDEGNEKRWSELMDENATFNVGDKTYHGRENAEHLFRERKDEMRIEIDLHKVEVSGDHVVLDITVVKEHNGKPRRVDVQVEFRIHNGRMQEFVQDEHG` , report its protease stability score.
0.245

Given the entry `DERKAEHWLDQLAQMLRTGDESHVARLMDENVNVVIGDQRFHGSDEARKAIRQLKERIDHLEVKDMKNEGNKMVVKAVADVNGRTHHLDVQMEFKNGRITRASFDPTAIKQAEG` , report its measured protease stability score.
1.14

Data request, read-out protease stability score, for `DETAERLEHQLKSALETGDEESAKKQFDPNVKFQYGDKVIHGMENAIERIVKRLKELHVSVELKSMHVEGNNIQADLVATENHNGQPRTRRFTLHVTWRNGRIQEIRQQDTK`
1.31

// query protease stability score value for entry `EEEQLHNVVRALNQNDFDKFRKLIDPNARVVVGDKSWHGREDLSNYIKQLQDHVDHRTVKDVKWHNGKIHADVEQTVNGKKMRFVFQAVVKGDKVKELNMKFRDERVETLMRKVLR`
0.14

# query: protease stability score of entry `DREEVRQVDQWMKNQQRNNPDELVKLADPNVEFRIGDKTVHGMRRYADDVRRKREHIRLEFKHMKIEDQNGRVILRAKAQREHNGKPETFTMQITFEAHNGRIKKAVITTQK`
0.044

Which protease stability score is listed for `DEHAIKLLKKIYEAWEEGDPDEARENADPNARYIIGDKTLHGMENIVKEWQRRYDESRIDYKHIDVQDDNGRANADVRYVVQHNGRPERKTMTVIVEVHNGRVTQIHFQDTQ` ?
-0.01

Entry under review: `DDRTQKRLAEEVVRILNRGDEDQIRKMADKDVKARVGEQSVHGRETALRLLIEFNRRVDHVDIRHVHTEEGRVEVDLVAEVNGRRIRMHIVFILHNGKLHKVEMDPDELRKLEK` . Reported protease stability score?
0.868

Which protease stability score is reported for this sequence? `DEKHYKKVLKRVLDYFMKGNKEQVKKIAKPDVEFHAGKMKIEGTDHLAKYYEKLQRKGVKLEIKEQHVTGDTVEVKYELEVGGTKVTVKATLKVKDDKVDKAEAKNDDDYHKRVKKG`
0.117

For the sequence `DPTKVDHVARRVLEYMVKGNAEEVRKMVKPNAEAQTGDQKYKGQDEIHKMVKTLKDYGIEVKRDEVRVDGGHAQLKIRANIGDRTYTARWQVEAKDGKVDRIQMDISEDLKKAIKHG` , what protease stability score is on record?
-0.022

Name the recorded protease stability score for `DDSDVNQAQTIWKHWQQGNFREIAKNADPNVKINVGDKQYHGREEYESDMQEHRNQIRVKITSMSQNKNGDKAVVDAVIVNEENGEPEEKRFVWYIKAHNGRIVSFRVEDEK` .
0.176
